Listing of recorded pKd by entry.
Biological target: fibroblast growth factor (FGF)
Assay: macromolecular interaction on chip, FGF
Settings: compound fixed on the chip; FGF 1 μM
Description: The experimental scheme: 1. Fixed the compounds on the chip: Mobile phase were EGF (1 μM), FGF (1 μM), HSP90 (100 nM), FKBP12 (100 nM). Detection whether small molecule compounds combined with the provided protein of heat shock protein (HSP90), epidermal growth factor (EGF) and fibroblast growth factor (FGF); and provide relevant data of combined dynamics.
pKd: −log10 of the molar value.
recorded_endpoint: pKd

- compound: "CC[C@@]1(O)C(=O)OCc2c1cc1n(c2=O)Cc2c-1nc1cc3c(cc1c2/C=C/c1cc(F)c(F)c(F)c1)OCO3 [Compound 7]"
  value_reported: 7.27
- compound: "CC[C@@]1(O)C(=O)OCc2c1cc1n(c2=O)Cc2c-1nc1cc3c(cc1c2/C=C/c1ccc(F)c(F)c1)OCO3 [Compound 6]"
  value_reported: 8.05
- compound: "CC[C@@]1(O)C(=O)OCc2c1cc1n(c2=O)Cc2c-1nc1cc3c(cc1c2CCN1CCOCC1)OCO3 [Compound 51]"
  value_reported: 7.34
- compound: "CC[C@@]1(O)C(=O)OCc2c1cc1n(c2=O)Cc2c-1nc1cc3c(cc1c2CCN1CCCCC1)OCO3 [Compound 52]"
  value_reported: 8.15
- compound: "CC[C@@]1(O)C(=O)OCc2c1cc1n(c2=O)Cc2c-1nc1cc3c(cc1c2-c1ccncc1)OCO3 [Compound 21]"
  value_reported: 7.72

Recorded values, source patent US20220177485A1.
